These measurements were taken from paper PMC5736767.

Assay name: in vitro
Measurement context: human, pH 7.4
Measured property: Papp at 2 h, 10 μM (×10⁻⁶ cm/s)
Numbers only, in ×10⁻⁶ cm/s.

Use these answered entries as a reference point.
# Compound, Papp at 2 h, 10 μM (×10⁻⁶ cm/s)
records = [
    ("CC(C)(C)NCC(O)c1cc(O)cc(O)c1 (stereo not drawn)", 19.3),
    ("COCCc1ccc(OCC(O)CNC(C)C)cc1 (stereo not drawn)", 24.5),
]

Consider now this further compound.
Item under review: CC(C)NCC(O)COc1cccc2ccccc12 (stereo not drawn) . Reported Papp at 2 h, 10 μM?
17.3

----------
Assay name: Absorptive (A to B) permeability in Calu-3 cell layers
Measurement context: human, pH 7.4
Measured property: Papp at 2 h, 10 μM (×10⁻⁶ cm/s)
Give bare numbers, in ×10⁻⁶ cm/s.

Item under review: COc1ccc(CC(C)NCC(O)c2ccc(O)c(NC=O)c2)cc1 (stereo not shown) [Formoterol] . Reported Papp at 2 h, 10 μM?
6.4

----------
Assay name: Absorptive (A to B) permeability in normal human bronchial epithelial (NHBE) cell layers
Format: in vitro ADME
Measurement context: human, apical to basolateral, 10 μM, pH 7.4, 2 h, mean ± SD (n = 3, n = 18 for mannitol)
Give measured Papp at 2 h, 10 μM for each item. Keep answers brief.
Numbers only, in ×10⁻⁶ cm/s.

# Compound, Measured property, Unit, Reported value
data = [
    ("COCCc1ccc(OCC(O)CNC(C)C)cc1 (stereo not shown) [Metoprolol]", "Papp at 2 h, 10 μM", "×10⁻⁶ cm/s", 11.3),
]

Would you mind listing Papp at 2 h, 10 μM for each of the following compounds?
1. CC(C)NCC(O)COc1cccc2ccccc12 (stereo not shown) [Propranolol]
2. CC(C)(C)NCC(O)c1cc(O)cc(O)c1 (stereo not shown) [Terbutaline]

[16.8, 13.8]

Item under review: OC[C@@H](O)[C@@H](O)[C@H](O)[C@H](O)CO [Mannitol] . Reported Papp at 2 h, 10 μM?
1.6

----------
Assay name: Absorptive (A to B) permeability in Calu-3 cell layers
Measurement context: human, pH 7.4, Papp, Calu-3, apical to basolateral, 10 μM, pH 7.4, 2 h; mean ± SEM (n = 6, n = 36 for mannitol)
Measured property: Papp at 2 h, 10 μM
# number then unit; no other words

Use these answered entries as a reference point.
# Compound, Papp at 2 h, 10 μM
rows = [
    ("CC(C)(C)NCC(O)c1cc(O)cc(O)c1 (stereo not shown)", "7.3 ×10⁻⁶ cm/s"),
    ("CC(C)NCC(O)COc1cccc2ccccc12 (stereo not shown)", "7 ×10⁻⁶ cm/s"),
    ("OC[C@@H](O)[C@@H](O)[C@H](O)[C@H](O)CO", "0.5 ×10⁻⁶ cm/s"),
]

Item under review: COCCc1ccc(OCC(O)CNC(C)C)cc1 (stereo not shown) . Reported Papp at 2 h, 10 μM?
10.3 ×10⁻⁶ cm/s

----------
Assay name: in vitro
Measurement context: male, Wistar, rat, 100 μL, pH 7.4
Measured property: half-life (min)
One number for each entry, in min.

# Compound, half-life [min]
data = [
    ("COc1ccc(CC(C)NCC(O)c2ccc(O)c(NC=O)c2)cc1 (centres unmarked)", 30),
]

Consider now this further compound.
Item under review: CC(C)NCC(O)COc1cccc2ccccc12 (centres unmarked) . Reported half-life?
7

----------
Tested on: isolated perfused rat lungs
Assay name: in vitro
Measurement context: male, Wistar, rat, pH 7.4
Measured property: KaIPL (min⁻¹)
Numbers only, in min⁻¹.

# Compound, Unit, KaIPL
records = [
    ("OC[C@@H](O)[C@@H](O)[C@H](O)[C@H](O)CO", "min⁻¹", 0.029),
]

Would you mind listing KaIPL for each of the following compounds?
1. CC(C)NCC(O)COc1cccc2ccccc12 (stereo not shown)
2. COCCc1ccc(OCC(O)CNC(C)C)cc1 (stereo not shown)
3. CC(C)(C)NCC(O)c1cc(O)cc(O)c1 (stereo not shown)

0.098
0.260
0.037

----------
Assay name: Absorptive (A to B) permeability in 16HBE14o- cell layers
Measurement context: human, pH 7.4
Measured property: Papp at 2 h, 10 μM (×10⁻⁶ cm/s)
One number for each entry, in ×10⁻⁶ cm/s.

Item under review: OC[C@@H](O)[C@@H](O)[C@H](O)[C@H](O)CO . Reported Papp at 2 h, 10 μM?
3.7

----------
System: isolated perfused rat lungs
Assay name: in vitro
Measurement context: male, Wistar, rat, 90 min, pH 7.4
Measured property: % transferred to the perfusate in 90 min (%)
Give bare numbers, in %.

# Compound, Reported value
measured = [
    ("COCCc1ccc(OCC(O)CNC(C)C)cc1 (centres unmarked)", 65),
    ("CN(C)CCCN1c2ccccc2CCc2ccccc21", 58),
    ("CC(C)(C)NCC(O)c1cc(O)cc(O)c1 (centres unmarked)", 52),
]

Would you mind listing % transferred to the perfusate in 90 min for each of the following compounds?
1. OC[C@@H](O)[C@@H](O)[C@H](O)[C@H](O)CO
2. CC(C)NCC(O)COc1cccc2ccccc12 (centres unmarked)

1. 51
2. 47

----------
Assay name: Absorptive (A to B) permeability in Calu-3 cell layers
Measurement context: human, pH 7.4, Papp, Calu-3, as stated in text
Measured property: Papp at 2 h, 10 μM (×10⁻⁶ cm/s)
Numbers only, in ×10⁻⁶ cm/s.

Item under review: OC[C@@H](O)[C@@H](O)[C@H](O)[C@H](O)CO . Reported Papp at 2 h, 10 μM?
0.48
